- measured_target: mAChE (Mus musculus, UniProt P21836)
- protocol_summary: biochemical
- setup_conditions: IC 50-values of reversible inhibitors
readout_label: IC50

So what's the measured IC50 for this one? CCN(CC)C(C)CN1c2ccccc2Sc2ccccc21 (stereo not shown)
~1000 µM

Reference for the values: paper PMC4598118
